test system: colorectal tissue transcripts; test: SAGE of normal, adenoma and cancer colorectal tissue (transcript tag counts); set-up: species or system human; conditions: SAGE library AD2
parameter_measured: AD2 (SAGE tag count)
Answers are plain numbers.

chain	parameter_measured	recorded_value
AAGGTAGCAG (chemistry not fully specified)	AD2 (SAGE tag count)	4

Please state AD2 (SAGE tag count) for every sequence in the list that follows.
1. CTGGCAAAGG (chemistry not fully specified)
2. ATGGCACGGA (chemistry not fully specified; the letters are possibly those of the target site)
3. CCTGGAAGAG (chemistry not fully specified)
4. ACAGGGTGAC (chemistry not fully specified)

output:
[0, 1, 4, 8]

Please state AD2 (SAGE tag count) for every sequence in the list that follows.
1. CGTGGGTGGG (chemistry not fully specified)
2. CTGGGCCTCT (chemistry not fully specified)
3. AATAAAGGCT (chemistry not fully specified)
4. GAGAGCTCCC (chemistry not fully specified)
5. CCTGCTTGTC (chemistry not fully specified)

output:
[0, 2, 7, 0, 3]
